Listing: pIC50 of selected compounds
Molecular target: EIF2AK3 (PERK) catalytic domain (amino acids 536-1116) (Homo sapiens, UniProt Q9NZJ5)
Construct: EIF2AK3 (PERK) catalytic domain (amino acids 536-1116)
Sequence (Q9NZJ5 536-1116): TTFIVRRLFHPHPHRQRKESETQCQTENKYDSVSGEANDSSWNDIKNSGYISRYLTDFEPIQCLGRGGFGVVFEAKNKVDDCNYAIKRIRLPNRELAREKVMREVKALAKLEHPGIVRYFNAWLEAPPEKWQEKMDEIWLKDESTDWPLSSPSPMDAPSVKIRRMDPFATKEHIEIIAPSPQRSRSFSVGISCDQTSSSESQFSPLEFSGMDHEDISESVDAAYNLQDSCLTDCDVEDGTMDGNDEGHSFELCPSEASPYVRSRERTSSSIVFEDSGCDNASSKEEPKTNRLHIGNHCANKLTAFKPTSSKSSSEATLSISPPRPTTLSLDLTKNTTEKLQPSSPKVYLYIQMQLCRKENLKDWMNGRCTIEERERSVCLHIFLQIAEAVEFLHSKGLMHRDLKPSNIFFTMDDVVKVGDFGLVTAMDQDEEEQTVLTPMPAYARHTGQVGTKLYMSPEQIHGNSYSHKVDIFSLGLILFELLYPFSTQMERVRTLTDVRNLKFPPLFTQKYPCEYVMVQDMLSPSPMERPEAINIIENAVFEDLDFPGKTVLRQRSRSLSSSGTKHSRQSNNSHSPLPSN
Test: PERK in vitro activity assay (isolated), TR-FRET kinase assay
Type: biochemical
Settings: isolated PERK enzyme, 1.5 μM ATP; read-out: Biochemical IC50
Excerpt: PERK In Vitro Activity Assay (Isolated): […] Express and purify HIS-SUMO-GCN2 catalytic domain (amino acids 584-1019) from E. coli. […] Monitor the resulting fluorescence in an EnVison® Multilabel reader (PerkinElmer, Waltham, Mass.). […]
pIC50: −log10 of the molar value.

Use the examples below as a reference point.
{"compound": "COc1cc(NC(=O)C(O)c2cccc(F)c2)ccc1-c1cn(C)c2ncnc(N)c12 (stereo not drawn) [Example 104]", "target or system": "EIF2AK3 (PERK) catalytic domain (amino acids 536-1116) (Homo sapiens, UniProt Q9NZJ5)", "pIC50": "7.30 to 7.59"}
{"compound": "Cc1nc(N)c2c(-c3ccc(NC(=O)C(O)c4cc(F)cc(C(F)(F)F)c4)c(F)c3F)cn(C)c2n1 (single isomer, unassigned) [Example 116]", "target or system": "EIF2AK3 (PERK) catalytic domain (amino acids 536-1116) (Homo sapiens, UniProt Q9NZJ5)", "pIC50": "6.30 to 6.60"}
{"compound": "Cc1cc(NC(=O)C(O)c2cccc(F)c2)c(F)cc1-c1cn(C)c2ncnc(N)c12 (stereo not drawn) [Example 120]", "target or system": "EIF2AK3 (PERK) catalytic domain (amino acids 536-1116) (Homo sapiens, UniProt Q9NZJ5)", "pIC50": "7.00 to 7.29"}

Prompt: What does the data say about its pIC50? Entry: COc1cc(NC(=O)C(O)c2cccc(F)c2)ccc1-c1cn(C)c2nc(C)nc(N)c12 (single isomer, unassigned) [Example 105]
Completion: < 5.30

Prompt: Try the compound Cc1cc(NC(=O)C(O)c2cccc(F)c2)ccc1-c1cn(C)c2ncnc(N)c12 (stereo not drawn) [Example 10]
Completion: 7.60 to 9.00
